- experiment: duplex formation entropy ΔS (Van't Hoff fit of HRM Tm); higher = smaller entropy loss on duplex formation
- conditions: temperature for dG: 50 °C; NaCl: 500 mM (unadjusted); backbone: PO-PO (both strands phosphodiester DNA)
Measured duplex formation entropy ΔS values are reported for all entries that follow.
assayMetric: duplex formation entropy ΔS (cal/mol/K)

monomersequence=CCCAGGCCTCGGATTTA experimentalvalue=-206
monomersequence=AGACATCCCATACGAGCATCCA experimentalvalue=-292
monomersequence=ACATGACTCATCTTAGCCGGCGAG experimentalvalue=-336
monomersequence=CGCGCGAGTATTTATAACCT experimentalvalue=-372
monomersequence=GCTGTGAAACAATGTAG experimentalvalue=-217
monomersequence=GCGGTTGGTGGCCAAC experimentalvalue=-223
monomersequence=CTGTAAGGCGATATGTT experimentalvalue=-202
monomersequence=TATTCTGCCAATGGAAC experimentalvalue=-209
monomersequence=TGTCGCACCCTACTA experimentalvalue=-158
monomersequence=ACGGGTCGTTCCGTG experimentalvalue=-173
monomersequence=GATTGTATCATCGACATCACACTACC experimentalvalue=-336
monomersequence=GTGGTACAAATGCGACC experimentalvalue=-229
monomersequence=TTTGGGTTAGTAAGAAGGCAGCAGTTGGGC experimentalvalue=-517
monomersequence=GCTGAACTAACCACCA experimentalvalue=-201
monomersequence=TTGTAGTTGACGTTTGTGATTTAGTGAATT experimentalvalue=-503
monomersequence=CCACTAGCGGCGCCGTT experimentalvalue=-247

====

- experiment: duplex formation enthalpy ΔH (Van't Hoff fit of HRM Tm); higher = less exothermic duplex formation
- conditions: temperature for dG: 50 °C; NaCl: 500 mM (unadjusted); backbone: PS-PO (listed strand fully phosphorothioate, complement phosphodiester)
assayMetric: duplex formation enthalpy ΔH (kcal/mol)

monomersequence=CACAGCGACATGTATGG experimentalvalue=-83.1
monomersequence=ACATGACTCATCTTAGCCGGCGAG experimentalvalue=-133
monomersequence=CTACCAGCGGCGCCGTT experimentalvalue=-66.1
monomersequence=GCTGTGAAACAATGTAG experimentalvalue=-78.8
monomersequence=AGCACGGTGGTACAACA experimentalvalue=-78.6
monomersequence=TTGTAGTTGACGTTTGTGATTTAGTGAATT experimentalvalue=-151
monomersequence=GGTGGCGTTCTT experimentalvalue=-45.3
monomersequence=GAACCGTTGATGATCTC experimentalvalue=-78.8
monomersequence=GCGGTTGGTGGCCAAC experimentalvalue=-80.6
monomersequence=AATGTCGAACAGCAATT experimentalvalue=-74.3
monomersequence=CCGTTGCTGCTAGG experimentalvalue=-69.4
monomersequence=CGGTGCTTTTGGTAGC experimentalvalue=-75.7
monomersequence=TCTACACCGCGA experimentalvalue=-46.4
monomersequence=AACGAATGTCAGCAATT experimentalvalue=-74.7
monomersequence=CTCGGAGGCCCCATTTA experimentalvalue=-66
monomersequence=GTCATTGTGCTTTTGC experimentalvalue=-69.8
monomersequence=CGACATGTATGGCACAG experimentalvalue=-84.2

====

- experiment: duplex formation free energy ΔG50 (Van't Hoff fit of HRM Tm); higher = less stable duplex
- conditions: temperature for dG: 50 °C; NaCl: 500 mM (unadjusted); backbone: PS-PS (both strands fully phosphorothioate)
assayMetric: duplex formation free energy ΔG50 (kcal/mol)

monomersequence=AGAGCGCCCTGCTGCC unitsymbol=kcal/mol experimentalvalue=-12.6
monomersequence=CCACTAGCGGCGCCGTT unitsymbol=kcal/mol experimentalvalue=-12.8
monomersequence=CTCGGAGGCCCCATTTA unitsymbol=kcal/mol experimentalvalue=-11.2
monomersequence=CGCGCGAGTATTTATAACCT unitsymbol=kcal/mol experimentalvalue=-10.5
monomersequence=ACTCGCTCTACCTTAAT unitsymbol=kcal/mol experimentalvalue=-9.16
monomersequence=ACGGGTCGTTCCGTG unitsymbol=kcal/mol experimentalvalue=-10.5
monomersequence=TCTACACCGCGA unitsymbol=kcal/mol experimentalvalue=-8.52
monomersequence=GTGAAACAATGCTGTAG unitsymbol=kcal/mol experimentalvalue=-8.41
monomersequence=GTGGTACAAATGCGACC unitsymbol=kcal/mol experimentalvalue=-9.82
monomersequence=AGCTGAGCCTGCCGCC unitsymbol=kcal/mol experimentalvalue=-12.3
monomersequence=GAACTGCCACTACCAA unitsymbol=kcal/mol experimentalvalue=-9.57
monomersequence=TCTCGCGGTTCCATTA unitsymbol=kcal/mol experimentalvalue=-9.95
monomersequence=TTCGCGGTCTCCATTA unitsymbol=kcal/mol experimentalvalue=-10.2
monomersequence=GGTGGCGTTCTT unitsymbol=kcal/mol experimentalvalue=-8.49

====

- experiment: duplex melting temperature (HRM, EvaGreen); higher = more stable duplex
- conditions: duplex concentration 15 µM; backbone: PO-PO (both strands phosphodiester DNA)
assayMetric: duplex melting temperature (°C)

monomersequence=GAACTGCCACTACCAA assaymetric="duplex melting temperature" experimentalvalue=71
monomersequence=GTGAAACAATGCTGTAG assaymetric="duplex melting temperature" experimentalvalue=68.3
monomersequence=CGGCGCGCTG assaymetric="duplex melting temperature" experimentalvalue=70.8
monomersequence=TCTCGCGGTTCCATTA assaymetric="duplex melting temperature" experimentalvalue=73.3
monomersequence=AGGAGTGAATGAAATGG assaymetric="duplex melting temperature" experimentalvalue=68
monomersequence=GATGCCGCAGCGACCTG assaymetric="duplex melting temperature" experimentalvalue=82.1
monomersequence=CCACTAGCGGCGCCGTT assaymetric="duplex melting temperature" experimentalvalue=83
monomersequence=TGCCATGTTGAAAACC assaymetric="duplex melting temperature" experimentalvalue=68.8
monomersequence=CAAGCCTCGATTTTGT assaymetric="duplex melting temperature" experimentalvalue=70.1
monomersequence=CGATTTTGTCAAGCCT assaymetric="duplex melting temperature" experimentalvalue=70
monomersequence=CACAGCGACATGTATGG assaymetric="duplex melting temperature" experimentalvalue=73.3
monomersequence=GTGAGCAGAAGGGGTT assaymetric="duplex melting temperature" experimentalvalue=72.7
monomersequence=TCTACACCGCGA assaymetric="duplex melting temperature" experimentalvalue=67.5
monomersequence=GCTGTGAAACAATGTAG assaymetric="duplex melting temperature" experimentalvalue=67.8
monomersequence=AATGAGGAGTGAAATGG assaymetric="duplex melting temperature" experimentalvalue=68.5
monomersequence=TGTCGCACCCTACTA assaymetric="duplex melting temperature" experimentalvalue=72.7
monomersequence=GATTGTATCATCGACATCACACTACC assaymetric="duplex melting temperature" experimentalvalue=78.7
monomersequence=CGGTGCTTTTGGTAGC assaymetric="duplex melting temperature" experimentalvalue=71.8
monomersequence=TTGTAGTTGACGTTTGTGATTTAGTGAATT assaymetric="duplex melting temperature" experimentalvalue=79
monomersequence=GATCTCTCTATCATCGTTTATTGGGTAT assaymetric="duplex melting temperature" experimentalvalue=77.2
monomersequence=CGTGTGGATAATTAGCT assaymetric="duplex melting temperature" experimentalvalue=69
monomersequence=CGGGATTTCTGGCATCATTGTCCT assaymetric="duplex melting temperature" experimentalvalue=81
monomersequence=TATTCTGCCAATGGAAC assaymetric="duplex melting temperature" experimentalvalue=68.9
monomersequence=CGACATGTATGGCACAG assaymetric="duplex melting temperature" experimentalvalue=73
monomersequence=ACTGTATCGCCCTA assaymetric="duplex melting temperature" experimentalvalue=69.5
monomersequence=GCCCGAGCATGACTGCG assaymetric="duplex melting temperature" experimentalvalue=79.7
monomersequence=CGTGCAGCACTACTTG assaymetric="duplex melting temperature" experimentalvalue=73.4
monomersequence=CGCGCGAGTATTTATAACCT assaymetric="duplex melting temperature" experimentalvalue=75.7
monomersequence=CCCAGGCCTCGGATTTA assaymetric="duplex melting temperature" experimentalvalue=76.3
monomersequence=CTTTTGTGCGGGTAGC assaymetric="duplex melting temperature" experimentalvalue=71.9
monomersequence=GAGGCAGCCGCGACCTG assaymetric="duplex melting temperature" experimentalvalue=83.8
monomersequence=TAATTATACGAGTAGTTTCTGTCCTG assaymetric="duplex melting temperature" experimentalvalue=76.3

====

- experiment: duplex melting temperature (HRM, EvaGreen); higher = more stable duplex
- conditions: duplex concentration 2.5 µM; backbone: PS-PO (listed strand fully phosphorothioate, complement phosphodiester)
Classification field: yes (1) = duplex melting temperature at or over 60 °C; no (0) = duplex melting temperature under 60 °C.

monomersequence=ACTCGCTCTACCTTAAT discretelabel="no (0)"
monomersequence=CCCAGGCCTCGGATTTA discretelabel="yes (1)"
monomersequence=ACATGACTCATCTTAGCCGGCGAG discretelabel="yes (1)"
monomersequence=TGCCATGTTGAAAACC discretelabel="no (0)"
monomersequence=AGCTGAGCCTGCCGCC discretelabel="yes (1)"
monomersequence=TACTTCCAACGTAGG discretelabel="no (0)"
monomersequence=CAAGCCTCGATTTTGT discretelabel="no (0)"
monomersequence=AATGAGGAGTGAAATGG discretelabel="no (0)"
monomersequence=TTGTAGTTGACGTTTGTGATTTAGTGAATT discretelabel="yes (1)"
monomersequence=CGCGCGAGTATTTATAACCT discretelabel="yes (1)"
monomersequence=TATTCTGCCAATGGAAC discretelabel="no (0)"
monomersequence=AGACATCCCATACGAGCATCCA discretelabel="yes (1)"
monomersequence=ATAACTTACTCTCGCCT discretelabel="no (0)"
monomersequence=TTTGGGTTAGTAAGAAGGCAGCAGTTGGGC discretelabel="yes (1)"
monomersequence=CAAACTTAGTAATCACGCCCAGCAACCA discretelabel="yes (1)"
monomersequence=GTCATTGTGCTTTTGC discretelabel="no (0)"
monomersequence=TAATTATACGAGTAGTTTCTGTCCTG discretelabel="yes (1)"
monomersequence=TAGACGCGGCCTCTTTCC discretelabel="yes (1)"
monomersequence=GATGCCGCAGCGACCTG discretelabel="yes (1)"
monomersequence=GCCCGAGCATGACTGCG discretelabel="yes (1)"
monomersequence=CGTGTGGATAATTAGCT discretelabel="no (0)"
monomersequence=GCAGGAGCCGCGACCTG discretelabel="yes (1)"
monomersequence=GCTGAACTAACCACCA discretelabel="no (0)"
monomersequence=CGGTGCTTTTGGTAGC discretelabel="no (0)"
monomersequence=CGATTTTGTCAAGCCT discretelabel="no (0)"
monomersequence=TTAACCTGCAATGGATC discretelabel="no (0)"
monomersequence=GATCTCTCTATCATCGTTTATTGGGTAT discretelabel="yes (1)"
